- Test system: 20S proteasome β2 subunit, trypsin-like (T-L) activity
- Construct: gene PSMB7; native 20S proteasome purified from lymphoblastoid cells
- assay_summary: fluorogenic AMC peptide hydrolysis
- Format: biochemical
- condition_details: Boc-LRR-AMC, 37 °C, 30 min, enzyme pretreated with compound
pIC50: −log10 of the molar value.
outcome_measure: pIC50

{"columns": ["molecule", "pIC50"],
 "data": [
  ["CC(C)C[C@H](NC(=O)c1ccc([N+](=O)[O-])cc1)C(=O)NCCNC1=C(Cl)C(=O)c2ccccc2C1=O", 4.18],
  ["NC(=O)C[C@H](NC(=O)c1ccccc1)C(=O)NCCNC1=C(Cl)C(=O)c2ccccc2C1=O", 4.30],
  ["O=C(NC(CO)C(=O)NCCCCNC1=C(Cl)C(=O)c2ccccc2C1=O)c1ccc([N+](=O)[O-])cc1 (stereo not drawn)", 4.08]
]}

1 = O=C1C(Cl)=C(NCCCCNC(=O)[C@H](CO)NC(=O)c2cccc3ccccc23)C(=O)c2ccccc21
2 = NC(=O)C[C@H](NC(=O)c1cccc2ccccc12)C(=O)NCCNC1=C(Cl)C(=O)c2ccccc2C1=O
stdin: Which one would you say has the larger pIC50 value: 1 , or 2 ? Pick one; state its label.
stdout: 2
(2: 4.45, 1: 4.22)

* * *

- System: 20S proteasome β5 subunit, chymotrypsin-like (ChT-L) activity
- Construct: gene PSMB5; native 20S proteasome purified from lymphoblastoid cells
- assay_summary: fluorogenic AMC peptide hydrolysis
- Format: biochemical
- condition_details: Suc-LLVY-AMC, 37 °C, 30 min, enzyme pretreated with compound; read-out: IC50 (μm)^aChT-L
outcome_measure: IC50 (µM)

P = NC(=O)CC(NC(=O)c1ccc([N+](=O)[O-])cc1)C(=O)NCCCCNC1=C(Cl)C(=O)c2ccccc2C1=O (stereo not drawn)
Q = CC(C)C[C@H](NC(=O)c1cccc2ccccc12)C(=O)NCCCCNC1=C(Cl)C(=O)c2ccccc2C1=O
stdin: Which one would you say has the larger IC50 value: P , or Q ? Pick one; state its label.
stdout: Q

* * *

- Test system: 20S proteasome β2 subunit, trypsin-like (T-L) activity
- Construct: gene PSMB7; native 20S proteasome purified from lymphoblastoid cells
- assay_summary: fluorogenic AMC peptide hydrolysis
- Format: biochemical
- condition_details: Boc-LRR-AMC, 37 °C, 30 min, enzyme pretreated with compound
outcome_measure: IC50 (µM)

{"columns": ["compound", "study_target", "meas_value"],
 "data": [
  ["O=C(N[C@@H](Cc1ccccc1)C(=O)NCCNC1=C(Cl)C(=O)c2ccccc2C1=O)c1ccccc1", "20S proteasome β2 subunit, trypsin-like (T-L) activity", 53.2],
  ["NC(=O)C[C@H](NC(=O)c1ccc([N+](=O)[O-])cc1)C(=O)NCCNC1=C(Cl)C(=O)c2ccccc2C1=O", "20S proteasome β2 subunit, trypsin-like (T-L) activity", 17.2],
  ["O=C(N[C@@H](Cc1ccccc1)C(=O)NCCNC1=C(Cl)C(=O)c2ccccc2C1=O)c1ccc([N+](=O)[O-])cc1", "20S proteasome β2 subunit, trypsin-like (T-L) activity", 35.4],
  ["O=C(NC(CO)C(=O)NCCNC1=C(Cl)C(=O)c2ccccc2C1=O)c1ccc([N+](=O)[O-])cc1 (stereo not shown)", "20S proteasome β2 subunit, trypsin-like (T-L) activity", 63.4]
]}

P = Cc1c(O)cccc1C(=O)N[C@@H](CO)C(=O)NCCCCNC1=C(Cl)C(=O)c2ccccc2C1=O
Q = O=C(N[C@@H](CO)C(=O)NCCNC1=C(Cl)C(=O)c2ccccc2C1=O)c1ccccc1
stdin: Which one would you say has the larger IC50 value: P , or Q ? Pick one; state its label.
stdout: P
(P: 80.2 µM, Q: 53.8 µM)
